Where these numbers come from: the Kinase Knowledgebase extract (Sharma et al. 2016)

- TARGET OR TEST SYSTEM: UniProt P48736
- ASSAY REMARKS: Enzyme Assay
EXPERIMENTAL ENDPOINT: IC50 (nM)

[[record]]
compound = "O=C(c1nn(CCc2ccccn2)c2c1CS(=O)(=O)c1ccccc1-2)N1CCOCC1"
experimental_endpoint = "IC50"
quantitative_readout = 1920

[[record]]
compound = "COCCN(C)CCN1CCC[C@H](n2nc(C(=O)N3CCOCC3)c3c2-c2ccccc2S(=O)(=O)C3)C1"
experimental_endpoint = "IC50"
quantitative_readout = 45

[[record]]
compound = "O=C(c1nn(C2CCCNC2)c2c1CS(=O)(=O)c1cc(OC(F)(F)F)ccc1-2)N1CCOCC1 (stereo unspecified)"
experimental_endpoint = "IC50"
quantitative_readout = 10500

[[record]]
compound = "O=C1CCCN1CCN1CCC[C@H](n2nc(C(=O)N3CCOCC3)c3c2-c2ccccc2S(=O)(=O)C3)C1"
experimental_endpoint = "IC50"
quantitative_readout = 80

[[record]]
compound = "CC(=O)Nc1cccc2c1S(=O)(=O)Cc1c(C(=O)N3CCOCC3)nn(-c3ccccc3)c1-2"
experimental_endpoint = "IC50"
quantitative_readout = 9880

[[record]]
compound = "O=C(c1nn(C2CCCC2)c2c1CS(=O)(=O)c1ccccc1-2)N1CCOCC1"
experimental_endpoint = "IC50"
quantitative_readout = 205


---

This listing pairs molecules with measured log10 of IC50.
- TARGET OR TEST SYSTEM: PIK3CB;PIK3CG;PIK3CD;PIK3CA (human)
- ASSAY REMARKS: Enzyme Assay
EXPERIMENTAL ENDPOINT: log10 of IC50 (log10 of the value in nM)

[[record]]
molecule = "O=C(c1nn(C2CCCN(CCC(C(F)(F)F)C(F)(F)F)C2)c2c1CS(=O)(=O)c1ccccc1-2)N1CCOCC1 (stereo not drawn)"
experimental_endpoint = "log10 of IC50"
quantitative_readout = 2.83

[[record]]
molecule = "COCCN1CCCC(n2nc(C(=O)N3CCOCC3)c3c2-c2ccccc2S(=O)(=O)C3)C1 (stereo not drawn)"
experimental_endpoint = "log10 of IC50"
quantitative_readout = 2.27

[[record]]
molecule = "CCOc1ccc2c(c1)S(=O)(=O)Cc1c(C(=O)N3CCOCC3)nn(-c3ccc(CN4CCOCC4)cc3)c1-2"
experimental_endpoint = "log10 of IC50"
quantitative_readout = 2.40

[[record]]
molecule = "O=C(c1nn([C@@H]2CCCNC2)c2c1CS(=O)(=O)c1ccccc1-2)N1CCOCC1"
experimental_endpoint = "log10 of IC50"
quantitative_readout = 3.48

[[record]]
molecule = "O=C(c1nn([C@@H]2CCCN(CCN3CCOCC3)C2)c2c1CS(=O)(=O)c1c(Cl)cccc1-2)N1CCOCC1"
experimental_endpoint = "log10 of IC50"
quantitative_readout = 3.72

[[record]]
molecule = "O=C(c1nn(C2CCCN(CCCn3cccc3)C2)c2c1CS(=O)(=O)c1ccccc1-2)N1CCOCC1 (stereo not drawn)"
experimental_endpoint = "log10 of IC50"
quantitative_readout = 1.95

[[record]]
molecule = "Cc1ccc(F)cc1-n1nc(C(=O)N2CCOCC2)c2c1-c1ccccc1S(=O)(=O)C2"
experimental_endpoint = "log10 of IC50"
quantitative_readout = 3.62

[[record]]
molecule = "O=C(c1nn(-c2ccc(CN3CCCCC3)cc2)c2c1CS(=O)(=O)c1ccccc1-2)N1CCOCC1"
experimental_endpoint = "log10 of IC50"
quantitative_readout = 2.04

[[record]]
molecule = "O=C(c1nn(-c2ccc3nn(Cc4ccccc4)cc3c2)c2c1CS(=O)(=O)c1ccccc1-2)N1CCOCC1"
experimental_endpoint = "log10 of IC50"
quantitative_readout = 3.32

[[record]]
molecule = "O=C(c1nn(-c2cccc(-c3ccoc3)c2)c2c1CS(=O)(=O)c1ccccc1-2)N1CCOCC1"
experimental_endpoint = "log10 of IC50"
quantitative_readout = 2.92

[[record]]
molecule = "O=C(c1n[nH]c2c1CS(=O)(=O)c1ccccc1-2)N1CCOCC1"
experimental_endpoint = "log10 of IC50"
quantitative_readout = 3.46

[[record]]
molecule = "CN1CCN(C(=O)c2ccc3c(c2)-c2c(c(C(=O)N4CCOCC4)nn2-c2ccccc2)CS3(=O)=O)CC1"
experimental_endpoint = "log10 of IC50"
quantitative_readout = 3.63

[[record]]
molecule = "O=C(c1nn(C2CCN(CCO)CC2)c2c1CS(=O)(=O)c1ccccc1-2)N1CCOCC1"
experimental_endpoint = "log10 of IC50"
quantitative_readout = 3.25

[[record]]
molecule = "Cc1noc(C)c1-c1cccc(-n2nc(C(=O)N3CCOCC3)c3c2-c2ccccc2S(=O)(=O)C3)c1"
experimental_endpoint = "log10 of IC50"
quantitative_readout = 2.48

[[record]]
molecule = "O=C(c1nn([C@@H]2CCCN(C3CCOCC3)CC2)c2c1CS(=O)(=O)c1ccccc1-2)N1CCOCC1"
experimental_endpoint = "log10 of IC50"
quantitative_readout = 2.02

[[record]]
molecule = "O=C(c1nn(C2CCC(F)(F)CC2)c2c1CS(=O)(=O)c1ccccc1-2)N1CCOCC1"
experimental_endpoint = "log10 of IC50"
quantitative_readout = 2.59

[[record]]
molecule = "O=C(c1nn(C2CCN(CCN3CCC(F)CC3)C2)c2c1CS(=O)(=O)c1ccccc1-2)N1CCOCC1 (stereo not drawn)"
experimental_endpoint = "log10 of IC50"
quantitative_readout = 2.17

[[record]]
molecule = "O=C(c1nn(C2CCN(C3CCOCC3)C2)c2c1CS(=O)(=O)c1ccccc1-2)N1CCOCC1 (stereo not drawn)"
experimental_endpoint = "log10 of IC50"
quantitative_readout = 1.89


---

- TARGET OR TEST SYSTEM: PIK3CB;PIK3CG;PIK3CD;PIK3CA (human) (UniProt P48736)
- ASSAY REMARKS: Enzyme Assay
pIC50: −log10 of the molar value.
EXPERIMENTAL ENDPOINT: pIC50

[[record]]
compound = "CS(=O)(=O)N1CCCC(n2nc(C(=O)N3CCOCC3)c3c2-c2ccccc2S(=O)(=O)C3)C1 (configuration not stated)"
experimental_endpoint = "pIC50"
quantitative_readout = 6.00

[[record]]
compound = "O=C(c1nn(C2CCCN(CCN3CCC(F)CC3)C2)c2c1CS(=O)(=O)c1ccccc1-2)N1CCOCC1 (configuration not stated)"
experimental_endpoint = "pIC50"
quantitative_readout = 7.47

[[record]]
compound = "CN1CCC(N2CCC[C@H](n3nc(C(=O)N4CCOCC4)c4c3-c3ccccc3S(=O)(=O)C4)C2)CC1"
experimental_endpoint = "pIC50"
quantitative_readout = 7.55

[[record]]
compound = "O=C(c1nn(-c2ccccc2)c2c1CS(=O)(=O)c1ncccc1-2)N1CCOCC1"
experimental_endpoint = "pIC50"
quantitative_readout = 6.28

[[record]]
compound = "COc1ccc2c(c1)S(=O)(=O)Cc1c(C(=O)N3CCOCC3)nn(C)c1-2"
experimental_endpoint = "pIC50"
quantitative_readout = 6.37

[[record]]
compound = "CC(C)(C)CCN1CCCC(n2nc(C(=O)N3CCOCC3)c3c2-c2ccccc2S(=O)(=O)C3)C1 (configuration not stated)"
experimental_endpoint = "pIC50"
quantitative_readout = 6.23

[[record]]
compound = "COc1ccc2c(c1)-c1c(c(C(=O)N3CCOCC3)nn1-c1ccccc1)CS2(=O)=O"
experimental_endpoint = "pIC50"
quantitative_readout = 5.47

[[record]]
compound = "O=C(c1nn([C@H]2CCN(C3CCOCC3)C2)c2c1CS(=O)(=O)c1c(F)cccc1-2)N1CCOCC1"
experimental_endpoint = "pIC50"
quantitative_readout = 7.28

[[record]]
compound = "Cc1ccc2c(c1)-c1c(c(C(=O)N3CCOCC3)nn1-c1ccccc1)CS2(=O)=O"
experimental_endpoint = "pIC50"
quantitative_readout = 5.82

[[record]]
compound = "O=C(c1nn(C2CCCN(CCC3CCCCC3)C2)c2c1CS(=O)(=O)c1ccccc1-2)N1CCOCC1 (configuration not stated)"
experimental_endpoint = "pIC50"
quantitative_readout = 6.81

[[record]]
compound = "COC(=O)CCN1CCC[C@H](n2nc(C(=O)N3CCOCC3)c3c2-c2ccccc2S(=O)(=O)C3)C1"
experimental_endpoint = "pIC50"
quantitative_readout = 7.32

[[record]]
compound = "Cc1nc2ccc(-n3nc(C(=O)N4CCOCC4)c4c3-c3ccccc3S(=O)(=O)C4)cc2s1"
experimental_endpoint = "pIC50"
quantitative_readout = 6.18


---

pIC50 listing for selected compounds.
- TARGET OR TEST SYSTEM: PIK3CB;PIK3CG;PIK3CD;PIK3CA (human) (UniProt P48736)
- ASSAY REMARKS: Enzyme Assay
pIC50: −log10 of the molar value.
EXPERIMENTAL ENDPOINT: pIC50

[[record]]
compound = "O=C(c1nn(C2CCCN(c3ccccc3)C2)c2c1CS(=O)(=O)c1ccccc1-2)N1CCOCC1 (configuration not stated)"
quantitative_readout = 6.33

[[record]]
compound = "COCN1c2c(C(=O)N3CCOCC3)nn(-c3ccccc3)c2-c2ccccc2S1(=O)=O"
quantitative_readout = 4.93

[[record]]
compound = "Cc1nc(-c2cccc(-n3nc(C(=O)N4CCOCC4)c4c3-c3ccccc3S(=O)(=O)C4)c2)n[nH]1"
quantitative_readout = 5.31

[[record]]
compound = "CN(C)CCn1nc(C(=O)N2CCOCC2)c2c1-c1ccccc1S(=O)(=O)C2"
quantitative_readout = 5.82

[[record]]
compound = "O=C(c1nn(-c2cccc(CN3CC(F)(F)C3)c2)c2c1CS(=O)(=O)c1ccccc1-2)N1CCOCC1"
quantitative_readout = 6.19

[[record]]
compound = "O=C(c1nn(C2CCCN(CCC3CCOCC3)C2)c2c1CS(=O)(=O)c1c(Cl)cccc1-2)N1CCOCC1 (configuration not stated)"
quantitative_readout = 7.42

[[record]]
compound = "O=C(c1nn(C2CCCCC2)c2c1CS(=O)(=O)c1ncccc1-2)N1CCOCC1"
quantitative_readout = 6.36

[[record]]
compound = "O=C(c1nn(C2CCCN(CCn3ccnc3)C2)c2c1CS(=O)(=O)c1ccccc1-2)N1CCOCC1 (configuration not stated)"
quantitative_readout = 7.28

[[record]]
compound = "O=C(c1nn(C2CCOCC2)c2c1CS(=O)(=O)c1c(Cl)cccc1-2)N1CCOCC1"
quantitative_readout = 6.17

[[record]]
compound = "O=C(c1nn(C2CCCN(CCF)C2)c2c1CS(=O)(=O)c1ccccc1-2)N1CCOCC1 (configuration not stated)"
quantitative_readout = 6.49

[[record]]
compound = "CC(C)(c1ccc(-n2nc(C(=O)N3CCOCC3)c3c2-c2ccccc2S(=O)(=O)C3)cc1)N1CCOCC1"
quantitative_readout = 6.23

[[record]]
compound = "O=C(c1nn(C2CCC(O)CC2)c2c1CS(=O)(=O)c1ccccc1-2)N1CCOCC1 (configuration not stated)"
quantitative_readout = 6.29

[[record]]
compound = "O=C(c1nn([C@H]2CCCNC2)c2c1CS(=O)(=O)c1ccccc1-2)N1CCOCC1"
quantitative_readout = 5.97

[[record]]
compound = "O=C(c1nn(C2CCN(CCCl)C2)c2c1CS(=O)(=O)c1ccccc1-2)N1CCOCC1 (configuration not stated)"
quantitative_readout = 6.52

[[record]]
compound = "O=C(c1nn(-c2ccc(CN3CCC(F)CC3)nc2)c2c1CS(=O)(=O)c1ccccc1-2)N1CCOCC1"
quantitative_readout = 5.92

[[record]]
compound = "O=C(c1nn([C@@H]2CCCN(CCN3CCOCC3)C2)c2c1CS(=O)(=O)c1ccccc1-2)N1CCOCC1"
quantitative_readout = 5.89

[[record]]
compound = "COC1CCN(Cc2ccc(-n3nc(C(=O)N4CCOCC4)c4c3-c3ccccc3S(=O)(=O)C4)cc2)CC1"
quantitative_readout = 6.60

